Reference for the values: patent US20240398823A1

Overview of recorded IC50 for various compounds
system.under.test: HSP90β (Homo sapiens, UniProt P08238)
Construct: Reaction Biology Corporation (ran the assay as a service)
Sequence (P08238 whole entry): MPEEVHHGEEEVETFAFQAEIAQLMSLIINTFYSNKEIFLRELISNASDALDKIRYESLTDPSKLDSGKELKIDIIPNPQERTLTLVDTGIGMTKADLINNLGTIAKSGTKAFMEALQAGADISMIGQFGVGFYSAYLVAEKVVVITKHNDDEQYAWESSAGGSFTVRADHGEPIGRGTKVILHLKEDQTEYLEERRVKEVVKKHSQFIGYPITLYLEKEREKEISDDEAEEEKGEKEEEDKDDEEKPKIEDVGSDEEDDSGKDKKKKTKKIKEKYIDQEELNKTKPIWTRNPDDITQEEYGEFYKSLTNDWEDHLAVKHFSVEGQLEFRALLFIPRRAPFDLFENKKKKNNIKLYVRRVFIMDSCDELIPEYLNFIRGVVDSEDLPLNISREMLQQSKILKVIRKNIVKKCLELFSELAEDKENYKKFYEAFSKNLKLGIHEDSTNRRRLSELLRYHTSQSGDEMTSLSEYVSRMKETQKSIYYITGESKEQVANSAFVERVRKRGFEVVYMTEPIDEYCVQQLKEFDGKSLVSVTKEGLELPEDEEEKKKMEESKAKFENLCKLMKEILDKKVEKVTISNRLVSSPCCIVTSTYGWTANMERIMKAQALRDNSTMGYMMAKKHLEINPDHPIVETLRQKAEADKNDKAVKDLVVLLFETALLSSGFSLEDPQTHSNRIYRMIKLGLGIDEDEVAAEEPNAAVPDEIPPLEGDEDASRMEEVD
experimental.details: HSP90 inhibition assay, FITC-geldanamycin competition fluorescence polarization, HSP90β
Type: binding
cond: FITC-GM competition
Write the number in nM without appending the unit.

# compound, IC50, nM
records = [
    ("COc1ccc(N(Cc2ccc(C(=O)NO)cc2)C(=O)c2cc(C(C)C)c(O)cc2O)cc1 [Compound 75]", 66.9),
    ("CC(C)c1cc(C(=O)N(Cc2ccc(C(=O)NO)cc2)c2ccccc2)c(O)cc1O [Compound 66]", 200),
]

Reported IC50 of CC(C)c1cc(C(=O)N(Cc2ccc(C(=O)NO)cc2)c2ccc(F)cc2)c(O)cc1O [Compound 67] : 103

Note to self: IC50 recorded for CC(C)c1cc(C(=O)N(Cc2ccc(C(=O)NO)cc2)c2ccc(O)cc2)c(O)cc1O [Compound 76] was 51.8

###

The following compounds each carry a recorded pIC50 for HSP90α (Homo sapiens, UniProt P07900).
In textbook form, pIC50 equals minus log to base ten of the concentration in mol/L.

// solved cases for pIC50 follow
# cpd.smiles, measurement.kind, recorded.number
data = [
    ("CC(C)c1cc(C(=O)N(Cc2ccc(C(=O)NO)cc2)c2ccc3c(c2)OCO3)c(O)cc1O", "pIC50", 7.40),
    ("CC(C)c1cc(C(=O)N(Cc2ccc(C(=O)NO)cc2)c2ccc(N(C)C)cc2)c(O)cc1O", "pIC50", 7.49),
    ("CC(C)c1cc(C(=O)N(Cc2ccc(C(=O)NO)cc2)c2ccc(I)cc2)c(O)cc1O", "pIC50", 7.04),
    ("CC(C)c1cc(C(=O)N(Cc2ccc(C(=O)NO)cc2)c2ccc(F)cc2)c(O)cc1O", "pIC50", 7.39),
    ("CC(C)c1cc(C(=O)N(Cc2ccc(C(=O)NO)cc2)c2ccc(Cl)cc2)c(O)cc1O", "pIC50", 7.22),
]

Bench note, HSP90α (Homo sapiens, UniProt P07900): CC(C)c1cc(C(=O)N(C)Cc2ccc(C(=O)NO)cc2)c(O)cc1O , pIC50 reads 7.60

Given the compound CCN(Cc1ccc(C(=O)NO)cc1)C(=O)c1cc(C(C)C)c(O)cc1O and test system HSP90α (Homo sapiens, UniProt P07900), the measured pIC50 is 7.03

Observed pIC50, HSP90α (Homo sapiens, UniProt P07900), COc1ccc(N(Cc2ccc(C(=O)NO)cc2)C(=O)c2cc(C(C)C)c(O)cc2O)cc1 : 7.28

###

// HDAC3 (Homo sapiens, UniProt O15379) pIC50 records
Please note pIC50 is a logarithmic value: minus log10 of concentration in mol/L. Answer with that number alone.

As a guide, the following entries are already answered.
# compound, system.under.test, pIC50
rows = [
    ("CC(C)c1cc(C(=O)N(Cc2ccc(C(=O)NO)cc2)c2ccc(N3CCOCC3)cc2)c(O)cc1O [Compound 71]", "HDAC3 (Homo sapiens, UniProt O15379)", 6.16),
    ("COc1ccc(N(Cc2ccc(C(=O)NO)cc2)C(=O)c2cc(C(C)C)c(O)cc2O)cc1 [Compound 75]", "HDAC3 (Homo sapiens, UniProt O15379)", 5.86),
    ("CC(C)c1cc(C(=O)N(Cc2ccc(C(=O)NO)cc2)c2ccc(Cl)cc2)c(O)cc1O [Compound 68]", "HDAC3 (Homo sapiens, UniProt O15379)", 5.52),
]

So, CC(C)c1cc(C(=O)N(Cc2ccc(C(=O)NO)cc2)c2ccc(I)cc2)c(O)cc1O [Compound 69] ? Its pIC50 was 5.66
